Assign GI50 to each entry below.
test system: HCC 2998; assay: NCI tumour cell line growth inhibition, 48 h
Activity calls are given as the source filed them. No stated cut-off is given here; in the data, active = GI50 up to about 1.1 µM and inactive = higher.

compound	test readout	result
CCOC(=O)CC(=O)CSc1c(-c2ccccc2)c(=O)n(-c2ccccc2)c(=S)n1-c1ccccc1	GI50	> 100 µM (inactive)
Cc1ccc2ccc(O)cc2c1	GI50	18.2 µM (inactive)
NC1=Nc2ccccc2Sc2cccc(F)c21	GI50	> 100 µM (inactive)
C[C@]12CCC(=O)C=C1CC[C@@H]1C2CC[C@]2(C)c3nn(-c4ccc(F)cc4)nc3CC12 (stereo not given in full)	GI50	> 100 µM (inactive)

Below are 6 compounds. Give each one its GI50.
1. O=C(OCC(OC(=O)c1ccccc1)C1CC(C(O)C2CCCCC2)C(=O)O1)c1ccccc1 (stereo not given)
2. O=C(/C=C/c1cccc2ccccc12)c1ccccc1Cl
3. COc1ccc(N2C(=O)C(=O)N(c3ccc(/N=N\c4ccccc4)cc3)C2=S)cc1
4. CNC(=O)OCc1c(COC(=O)NC)c(-c2ccc(Cl)c(Cl)c2)n2c1SCC2
5. CC(=O)CC(OC(C)=O)C1=CCC2C(CC1C)OC(=O)C2C (stereo not given)
6. CN(C)c1ccc(/C(Br)=C2\OC(=O)c3ccccc32)cc1

Result:
1. 47.9 µM (inactive)
2. 15.2 µM (inactive)
3. 16.4 µM (inactive)
4. 19.7 µM (inactive)
5. > 100 µM (inactive)
6. > 100 µM (inactive)

###

system: RPMI-8226; test: NCI tumour cell line growth inhibition, 48 h
Activity calls are given as the source filed them. Rule as the data show it: active = GI50 up to about 1.1 µM and inactive = higher.
Use one of these outcomes when replying: active, inactive

Solved entries (count: 5):
compound	group label
Nc1nnc(-c2ccco2)c(-c2ccco2)n1	inactive
COc1cc2c(cc1OC)C(C#N)N(C(=O)c1ccccc1)C=C2OC(=O)c1ccccc1 (stereo unspecified)	inactive
Cc1ccc([N+](=O)[O-])cc1S(=O)(=O)Nc1ccc(C2=NN(c3ccc([N+](=O)[O-])cc3[N+](=O)[O-])C(c3ccccc3O)C2)cc1 (stereo unspecified)	inactive
Cc1ccc(Nc2n[nH]c(NS(=O)(=O)c3cc(C(=O)Nc4ccc(Cl)cc4)c(Cl)cc3S)n2)cc1	inactive
N#CC1(C#N)C(=O)c2ccncc2C1=O	inactive

Problem: For C=C(C)C1CC2=C(O1)C(=O)c1cccc(O)c1C2=O (stereo unspecified) , which call appears in the assay record?
Result: active

Problem: For C=CC[P@]1(=O)O[C@H](c2ccccc2)C(C)N1C(C)C (stereo partly specified) , which call appears in the assay record?
Result: inactive

Problem: For O=C1CCc2ccc(O)c(c2)Oc2ccc(cc2)C(Sc2ccccc2)CCO1 (stereo unspecified) , which call appears in the assay record?
Result: inactive

Problem: For COc1cc2c(cc1C)NC(=O)/C2=C/c1c(Cl)[nH]c2ccccc12 , which call appears in the assay record?
Result: inactive

Problem: For CC(CCCC1SCC2NC(=O)NC21)C(=O)O (stereo unspecified) , which call appears in the assay record?
Result: inactive

Problem: For Cc1nc2c(=O)[nH]ncc2[nH]1 , which call appears in the assay record?
Result: inactive

Problem: For C[C@@]12CCC3C1C=C1C(=O)c4cc(O)ccc4C(=O)[C@]1(O2)[C@@]3(C)C=O , which call appears in the assay record?
Result: inactive

Problem: For c1cc2c(cc1C(N1CCNCC1)N1CCNCC1)OCO2 , which call appears in the assay record?
Result: inactive

###

tested on: SF-295; assay: NCI tumour cell line growth inhibition, 48 h
The source made the active and inactive calls. Cut-off read from the data, not from the text of the source: active = GI50 up to about 1.1 µM and inactive = higher.
Assign GI50 to each entry below.

compound	result
Cc1cc2c(c(C(=O)NCC(=O)O)c1)Oc1c(cc(C)cc1C(=O)NCC(=O)O)S2	> 100 µM (inactive)

Below are 6 compounds. Give each one its GI50.
1. CC(C)CC12CC3CCC(CNC1=O)C32C (centres undefined)
2. CCOC(=O)C12CCCC1(O)N(NC(=O)c1ccccc1)C(C)=C2C(=O)OC (centres undefined)
3. CCCCCCCCCCCCC(=O)OC(c1cnco1)c1nc(C(O)CC(O)C(O)C(C)O)co1 (centres undefined)
4. C[C@@]12CCC3C1C=C1C(=O)c4cc(O)ccc4C(=O)[C@]1(O2)[C@@]3(C)C=O
5. Cc1nc2c(=O)[nH]ncc2[nH]1
6. C[C@]12CCC(=O)C(O)=C1CC[C@@H]1[C@@H]2CC[C@]2(C)C(=O)CC[C@@H]12

Result:
["> 100 µM (inactive)", "> 100 µM (inactive)", "0.467 µM (active)", "11.5 µM (inactive)", "> 100 µM (inactive)", "> 100 µM (inactive)"]

Below are 6 compounds. Give each one its GI50.
1. C[C@]12CCC(=O)C=C1CC[C@@H]1C2CC[C@]2(C)c3nn(-c4ccc(F)cc4)nc3CC12 (some centres undefined)
2. Clc1cc2c(c(CSC3=NCN(CC4CC4)CN3)c1)OCOC2
3. O=[Se](O)O
4. O=C1C2CC=CCC2C(=O)N1n1c(-c2ccccc2)n[nH]c1=O (centres undefined)
5. c1cc2c(cc1C(N1CCNCC1)N1CCNCC1)OCO2
6. C=CCN(CC=C)Cn1c(=S)sc2ccccc21

Result:
1. 69.8 µM (inactive)
2. 24.6 µM (inactive)
3. 0.536 µM (active)
4. > 100 µM (inactive)
5. > 100 µM (inactive)
6. > 100 µM (inactive)

Problem: // returns reported GI50 for input O=c1[nH]c(=O)n(C2CC(O)C(CO)O2)cc1C(F)(C(F)(F)F)C(F)(F)F (centres undefined)
Result: > 100 µM (inactive)

###

system: A549; assay: NCI tumour cell line growth inhibition, 48 h
The source made the active and inactive calls. Rule as the data show it: active = GI50 up to about 1.1 µM and inactive = higher.
Use one of these outcomes when replying: active, inactive

Solved entries (count: 6):
compound	group label
CN(C)c1ccc(/C(Br)=C2\OC(=O)c3ccccc32)cc1	inactive
CCN(CC)CCCn1c(=O)c2ccccc2n2c3c(=O)n(C)c(=O)n(C)c3nc12	active
COP(=O)(OC)/C(=C/c1cn(C(c2ccccc2)(c2ccccc2)c2ccccc2)cn1)NC=O	inactive
CCN(CC)CCn1ncc2c(N)ncnc21	inactive
COc1cc(C2C(C(=O)Nc3ccc(Cl)c(Cl)c3)=C(C)NC(C)=C2C(=O)Nc2ccc(Cl)c(Cl)c2)ccc1O	inactive
CC[C@]1(Cc2ccc(OC)c(OC)c2)C=[N+]([O-])O[C@H](OC2CCCCC2c2ccccc2)[C@@H]1OC(C)=O (stereo not given in full)	inactive

Now let's try a different one.
Problem: For NCCc1c[nH]c2ccc(OC(=O)C(=O)O)cc12 , which call appears in the assay record?
Result: inactive

###

tested on: TK-10; test: NCI tumour cell line growth inhibition, 48 h
Calls of active or inactive are those of the source. Cut-off read from the data, not from the text of the source: active = GI50 up to about 1.1 µM and inactive = higher.
Assign GI50 to each entry below.

molecule	result
COc1ccc(-c2cc(-c3cc(OC)c(OC)c(OC)c3)cc(-c3cc4ccccc4oc3=O)n2)cc1	8.18 µM (inactive)
O=P(O)(O)C1CCCC(P(=O)(O)O)N1 (stereo not given)	> 100 µM (inactive)
CCOc1snc(C(Cl)(Cl)Cl)c1Cl	23.1 µM (inactive)
Cc1ccc(NC(=O)CSc2nc(O)nc3[nH]cnc23)cc1	> 100 µM (inactive)
O=C1C2c3[nH]c4ccccc4c3C3CCC(c4ccccc4)CC3C2C(=O)N1c1ccccc1 (stereo not given)	> 100 µM (inactive)

Below are 2 molecules. Give each one its GI50.
1. Cc1cc(C)nc(NS(=O)(=O)c2ccc(NC(=O)c3ccc(Cl)c4c(Nc5ccc(S(=O)(=O)Nc6nc(C)cc(C)n6)cc5)c5ccccc5nc34)cc2)n1
2. COc1cc(CNc2nc3ccccc3nc2C(=O)O)cc(OC)c1OC

Result:
1. 33.4 µM (inactive)
2. > 100 µM (inactive)

Below are 3 molecules. Give each one its GI50.
1. OCC(CCc1ccccc1I)C1=CCC2(CC1)OCCO2 (stereo not given)
2. O=C(O)CCC(=O)C(=O)O [ALPHA-KETOGLUTARIC ACID]
3. O=Cc1cc2c(o1)C(=O)c1ccccc1C2=O

Result:
23.5 µM (inactive)
> 100 µM (inactive)
2.7 µM (inactive)

###

test system: K562; test: NCI tumour cell line growth inhibition, 48 h
Active and inactive are the calls of the source. No stated cut-off is given here; in the data, active = GI50 up to about 1.1 µM and inactive = higher. Where a SMILES comes first, the peptide text is derived from it. [ ]: non-standard residue; d: D form. pGlu = O=C1CC[CH](C(=O)O)N1
Use one of these outcomes when replying: active, inactive

compound	measurement target	group label
C#C[C@@]1(O)CCCC2=CC3(CC[C@]21C)SCCS3	K562	inactive
CC(CCCC1SCC2NC(=O)NC21)C(=O)O (configuration not stated)	K562	inactive
CN(C)CCCNc1ccc([N+](=O)[O-])c2nc3ccccc3c(N)c12	K562	active
COc1ccc(CCNC(=O)[C@H]2CCCC[C@@H]2CCO)cc1OC	K562	inactive
COc1nc(NC2OC(COC(C)=O)C(OC(C)=O)C(OC(C)=O)C2OC(C)=O)c2c(OC(C)=O)c(C)c(=O)oc2n1 (configuration not stated)	K562	inactive

Problem: For CN1CCN(/C(N)=C(\C#N)C(=O)Nc2ccccc2)CC1 , which call appears in the assay record?
Result: inactive

Problem: For O=C(Nc1ccccc1[N+](=O)[O-])/C(=N/Nc1cccc(Cl)c1)c1c(O)c2ccccc2oc1=O , which call appears in the assay record?
Result: inactive

Problem: For COc1ccc2c(c1)O[C@@H]1C(O)Oc3cc(OC)c(OC)cc3[C@]1(O)C2=O (some centres not stated) , which call appears in the assay record?
Result: inactive

Problem: For CCc1cccc(CC)c1Nc1nc(-c2ccccc2-c2ccccc2)cs1 , which call appears in the assay record?
Result: inactive

Problem: For O=Cc1cc2c(o1)C(=O)c1ccccc1C2=O , which call appears in the assay record?
Result: inactive

Problem: For CCOC(=O)C(=O)CC1=Nc2ccccc2SC(c2cccc(C)c2)C1 (configuration not stated) , which call appears in the assay record?
Result: inactive

Problem: For CC(NC(=O)C1CCC(=O)N1)C(=O)N1CCCC1C(N)=O (stereo not drawn) ([pGlu]-Ala-Pro-NH2; configuration not given here) , which call appears in the assay record?
Result: inactive

Problem: For NC(=O)c1csc(C2CCC(CO)O2)n1 (configuration not stated) , which call appears in the assay record?
Result: inactive

Problem: For CO[C@H](/C(C)=C/C=C/C(C)=C/c1coc(C)n1)[C@H](C)[C@H]1C[C@@H](O)[C@@]2(C)O[C@H]2/C=C/[C@@H](C)[C@@H]2C[C@@H](CC(=O)O2)C[C@H]2O[C@@H]2C(=O)O1 , which call appears in the assay record?
Result: active

Problem: For CC1=NNC(=O)C1C1(C(=O)O)CC(c2c[nH]c3ccccc23)=NC(=S)N1 (configuration not stated) , which call appears in the assay record?
Result: inactive
